- SYSTEM_NAME: NAD-dependent protein deacylase sirtuin-5, mitochondrial (Homo sapiens)
- ASSAY_METHOD_TEXT: blockers of sirtuin-5 deacylase activity – biochemical, fluorescence imaging, single point, set 5, primary screen (AID 652115)
- CONDITION_CONTEXT: Purified SirT5, succinyl-peptide AMC, trypsin-coupled fluorescence; at 15 µM; active compounds read high
The whole screen tested about 330,000 compounds, of which about 3,800 (1.2%) were called active. Many of the other results were omitted from the sample, so actives are more common in it than they were.
MEASURED_ENDPOINT: inhibition (%)
Answer in %, number only, no unit symbol.

Example entries and their recorded answers appear below.
What value of measured inhibition is listed for S=C(NCCc1ccccc1)N1Cc2cc(N3CCOCC3)ccc2-n2nncc2C1 ?
0.564

What value of measured inhibition is listed for O=C(COC(=O)Cc1ccccc1)Nc1ccc(F)cc1 ?
-1.48

What value of measured inhibition is listed for CC(Cc1ccccc1)NC=O (stereo not given) ?
-0.859

What value of measured inhibition is listed for COc1ccc(CN2C(=O)NC(=O)/C(=C\c3ccc(OC)c(OC)c3OC)C2=O)cc1 ?
-0.842

---
What value of measured inhibition is listed for COC(=O)C1=C(c2ccc(OCc3ccccc3)cc2)C[C@@H]2CC[C@H]1N2C(=O)NCc1cccc(F)c1 ?
-8.66
